- SYSTEM UNDER TEST: T1, UNK ZnF1-3 (human, UniProt Q9C0B0 31-174)
- T1 sequence: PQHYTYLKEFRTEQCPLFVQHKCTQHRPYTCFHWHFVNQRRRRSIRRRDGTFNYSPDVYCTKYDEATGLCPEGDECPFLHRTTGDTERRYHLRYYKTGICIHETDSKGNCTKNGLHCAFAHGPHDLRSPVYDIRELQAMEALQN
- EXPERIMENT SUMMARY: nsRBNS (natural sequence RNA bind-n-seq); RBNS binding buffer (assumed for nsRBNS): 25 mM Tris pH 7.5, 150 mM KCl, 3 mM MgCl2, 0.01% Triton X-100, 500 ug/ml BSA, 20 U/ml SUPERase-In, 4 C; UNK is unkempt and MSI1 is Musashi-1; names of the RNAs are library labels; protein concentration not given here; high values mean tight binding
The full ranking holds about 24,000 sequences; the median of “enrichment r” is about 0.99, and the highest 2% start at about 3.7. The entries come from a sample that favours the highest values as a whole.
PARAMETER MEASURED: binding signal (enrichment R)
Write the value in enrichment R as a bare number.

Task item: // returns reported binding signal for input chr11:86070927:86070928:-_ENSMUSG00000018068_ENSMUST00000018212|mus_mus|FALSE|FALSE (ssRNA) RNA: GGGAGUUCUACAGUCCGACGAUCUGGCACCAACAGUGCCGUCGACAGAGCGAGAAUCAGAAUGGGGACACUGCAAAAAAAAAAAAAAAAGUAAAAAGGAAAGGGAAAAAAAAGGGAGAAGCAACCAGGAGAGAGGGGAAAGCACAACAGAGGAUUGAGCAUCA
Reply: 8.95

Task item: // returns reported binding signal for input chr3:148802587:148802588:-_ENSG00000071794_ENST00000310053|hu_mus|hu_hu_hu_mus_False|18_58 (ssRNA) RNA: GGGAGUUCUACAGUCCGACGAUCUCCAACAACUUGUCCUCUCAUAGUUCCAAAUAAAACCAAAUCUUGCUCUUCAUCACUAGUUAGGAAGUCAUCUGGAGGAAUAAUGUCUUGGAAUUCAAAACGUGGCAAGAAAGUUGAGUACAACAGAGGAUUGAGCAUCA
Reply: 1.29
